Molecular target: beta-catenin/TCF4 engagement (Homo sapiens, UniProt P35222)
Construct: expressed in transfected cells; host or cells: HEK293
Sequence (P35222 whole entry): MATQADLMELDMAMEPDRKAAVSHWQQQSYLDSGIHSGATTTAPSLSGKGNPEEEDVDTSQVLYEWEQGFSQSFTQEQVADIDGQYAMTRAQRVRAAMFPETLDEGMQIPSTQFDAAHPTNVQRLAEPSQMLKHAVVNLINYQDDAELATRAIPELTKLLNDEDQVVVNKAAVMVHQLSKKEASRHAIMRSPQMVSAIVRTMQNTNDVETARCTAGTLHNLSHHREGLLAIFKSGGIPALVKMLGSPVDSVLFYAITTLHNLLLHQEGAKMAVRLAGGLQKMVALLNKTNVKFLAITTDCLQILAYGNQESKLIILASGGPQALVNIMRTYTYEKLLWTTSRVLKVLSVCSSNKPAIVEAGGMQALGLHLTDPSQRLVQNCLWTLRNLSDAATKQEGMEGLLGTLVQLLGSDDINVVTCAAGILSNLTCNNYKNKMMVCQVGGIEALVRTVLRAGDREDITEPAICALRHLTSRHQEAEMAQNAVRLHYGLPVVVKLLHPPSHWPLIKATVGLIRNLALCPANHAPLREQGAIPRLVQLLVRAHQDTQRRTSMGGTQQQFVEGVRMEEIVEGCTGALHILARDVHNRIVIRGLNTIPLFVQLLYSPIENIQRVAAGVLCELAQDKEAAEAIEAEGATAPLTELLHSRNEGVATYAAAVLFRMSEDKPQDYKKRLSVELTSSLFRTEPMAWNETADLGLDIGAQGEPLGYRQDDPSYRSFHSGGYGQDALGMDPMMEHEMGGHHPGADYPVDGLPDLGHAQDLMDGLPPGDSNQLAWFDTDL
Experiment: Nano-BRET target engagement assay (B-cat-Halo & TCF4-Luc in HEK293 cells)
Type: cell-based
Conditions: read-out: NanoBRET Abs IC50

- molecule: "CC(=O)N1CCC[C@]12CC=CCCCC1(CCCC=CCCCOC(=O)N3CC[C@@](C(=O)N[C@@H](Cc4ccsc4)C(=O)N[C@@H](Cc4csc5ccccc45)C(=O)N[C@H](CCC(N)=O)C(N)=O)(C3)NC(=O)[C@H](CC(C)C)NC(=O)[C@H](Cc3ccccc3)NC(=O)[C@H](C)NC(=O)[C@H](C)NC(=O)[C@H](Cc3cccc(C(=O)O)c3)NC(=O)[C@H](CC(=O)O)NC1=O)NC(=O)[C@H](CC(C)(C)C)NC(=O)[C@H](CC(=O)O)NC2=O (some centres unmarked)"
  IC50: "4.4 µM"
- molecule: "CC(=O)N1CCC[C@]12CC=CCCCC1(CCCC=CCCCOC(=O)N3CC[C@@](C(=O)N[C@@H](Cc4ccsc4)C(=O)N[C@@H](Cc4csc5ccccc45)C(=O)N[C@@H](CCC(N)=O)C(N)=O)(C3)NC(=O)[C@H](CC(N)=O)NC(=O)[C@H](Cc3ccccc3)NC(=O)[C@H](CCCCNC(=O)CN3CCOCC3)NC(=O)[C@H](C)NC(=O)[C@H](CC(=O)O)NC(=O)[C@H](CC(=O)O)NC1=O)NC(=O)[C@H](CC(C)(C)C)NC(=O)[C@H](CC(=O)O)NC2=O (some centres unmarked)"
  IC50: "> 20 µM"
- molecule: "CC(=O)N1CCC[C@]12CC=CCCCC1(CCCC=CCCCOC(=O)N3CC[C@@](C(=O)N[C@@H](Cc4cccc(C(N)=O)c4)C(=O)N[C@@H](Cc4csc5ccccc45)C(=O)N[C@@H](CCO)C(N)=O)(C3)NC(=O)[C@H](CC(N)=O)NC(=O)[C@H](Cc3ccccc3)NC(=O)[C@H](C)NC(=O)[C@H](CCCCNC(C)C)NC(=O)[C@H](CCC(N)=O)NC(=O)[C@H](CC(=O)O)NC1=O)NC(=O)[C@H](CC1CCCCC1)NC(=O)[C@H](CC(N)=O)NC2=O (some centres unmarked)"
  IC50: "> 20 µM"
- molecule: "CC(=O)N1CCC[C@]12CC=CCCCC1(CCCC=CCCCOC(=O)N3CCC(C(=O)N[C@@H](Cc4ccccc4C(F)(F)F)C(=O)N[C@@H](Cc4csc5ccccc45)C(=O)N[C@@H](CCC(N)=O)C(N)=O)(CC3)NC(=O)[C@H](CC(C)C)NC(=O)[C@H](Cc3ccccc3)NC(=O)[C@H](C)NC(=O)[C@H](C)NC(=O)[C@H](Cc3cccc(C(=O)O)c3)NC(=O)[C@H](CC(=O)O)NC1=O)NC(=O)[C@H](CC(C)(C)C)NC(=O)[C@H](CC(=O)O)NC2=O (some centres unmarked) [I-2582]"
  IC50: "> 20 µM"
- molecule: "COCCOCCOCCOCCOCCOCCOCCOCCC(=O)NCCCC[C@@H]1NC(=O)[C@H](C)NC(=O)[C@H](CC(=O)O)NC(=O)[C@H](CC(=O)O)NC(=O)C2(CCCC=CCCCOC(=O)N3CC[C@@](C(=O)N[C@@H](Cc4ccsc4)C(=O)N[C@@H](Cc4csc5ccccc45)C(=O)N[C@@H](CCC(N)=O)C(N)=O)(C3)NC(=O)[C@H](CC(N)=O)NC(=O)[C@H](Cc3ccccc3)NC1=O)CCCC=CC[C@]1(CCCN1C(C)=O)C(=O)N[C@@H](CC(=O)O)C(=O)N[C@@H](CC(C)(C)C)C(=O)N2 (some centres unmarked)"
  IC50: "> 20 µM"

----------
Assay: Solubility in PBS
Assay type: physicochemical
# Solubility per record follows

- molecule: "CC(=O)N1CCC[C@]12CC=CCCCC1(CCCC=CCCCCOC(=O)N3CC[C@@](C(=O)N[C@@H](Cc4ccsc4)C(=O)N[C@@H](Cc4csc5ccccc45)C(=O)N[C@@H](CC(N)=O)C(=O)N[C@H](C)C(N)=O)(C3)NC(=O)[C@H](CC(N)=O)NC(=O)[C@H](Cc3ccccc3)NC(=O)[C@H](C)NC(=O)[C@H](C)NC(=O)[C@H](CC(=O)O)NC(=O)[C@H](CC(=O)O)NC1=O)NC(=O)[C@H](CC(C)(C)C)NC(=O)[C@H](CC(=O)O)NC2=O (stereo partly drawn)"
  Solubility / µM: 50
- molecule: "CC(=O)N1CCC[C@]12CC=CCCCC1(CCCC=CCCCCCC[C@@](C)(C(=O)N[C@@H](Cc3ccccc3)C(=O)N[C@@H](Cc3csc4ccccc34)C(=O)N[C@@H](CCC(N)=O)C(N)=O)NC(=O)[C@H](CCC(N)=O)NC(=O)[C@H](Cc3ccccc3)NC(=O)[C@H](C)NC(=O)[C@H](C)NC(=O)[C@H](CCC(=O)O)NC(=O)[C@H](CCO)NC1=O)NC(=O)[C@H](C)NC(=O)[C@H](CC(=O)O)NC2=O (stereo partly drawn) [I-496]"
  Solubility / µM: 41
- molecule: "CC(=O)N1CCC[C@]12CC=CCCCC1(CCCC=CCCCOC(=O)N3CC[C@@](C(=O)N[C@@H](Cc4ccccc4Cl)C(=O)N[C@@H](Cc4csc5ccccc45)C(=O)N[C@@H](CCC(N)=O)C(N)=O)(C3)NC(=O)[C@H]([C@@H](C)O)NC(=O)[C@H](Cc3ccccc3)NC(=O)[C@H](C)NC(=O)[C@H](C)NC(=O)[C@H](CN(CC(=O)O)CC(F)(F)F)NC(=O)[C@H](CC(=O)O)NC1=O)NC(=O)[C@H](CC(C)(C)C)NC(=O)[C@H](CC(=O)O)NC2=O (stereo partly drawn)"
  Solubility / µM: 32

----------
Biological target: beta-catenin/TCF4 engagement (Homo sapiens, UniProt P35222)
Construct: expressed in transfected cells; host or cells: HEK293
Experiment: Nano-BRET target engagement assay (B-cat-Halo & TCF4-Luc in HEK293 cells)
Format: cell-based
Details: absolute IC50; read-out: NanoBRET Abs IC50
# IC50 per record follows
measured endpoint: IC50 (µM)

- compound: "CC(=O)N1CCC[C@]12CC=CCCCC1(CCCC=CCCCOC(=O)N3CC[C@@](C(=O)N[C@@H](Cc4ccccc4C(F)(F)F)C(=O)N[C@H](C(=O)N[C@@H](C)C(N)=O)[C@H](C)c4ccc5ccccc5c4)(C3)NC(=O)[C@H](CC(C)C)NC(=O)[C@H](Cc3ccccc3)NC(=O)[C@H](C)NC(=O)[C@H](CCC(N)=O)NC(=O)[C@H](Cc3cccc(C(=O)O)c3)NC(=O)[C@H](CC(=O)O)NC1=O)NC(=O)[C@H](CC(C)(C)C)NC(=O)[C@H](CC(=O)O)NC2=O (some centres unmarked) [I-2463]"
  value comparator: "="
  data value: 6.5
- compound: "CC(=O)N1CCC[C@]12CC=CCCCC1(CCCC=CCCCOC(=O)N3CC[C@@](C(=O)N[C@@H](Cc4ccccc4C(F)(F)F)C(=O)N[C@@H](Cc4csc5ccccc45)C(=O)N[C@@H](CCCCNC(C)C)C(N)=O)(C3)NC(=O)[C@H](CC(C)C)NC(=O)[C@H](Cc3ccccc3)NC(=O)[C@H](C)NC(=O)[C@H](C)NC(=O)[C@H](Cc3cccc(C(=O)O)c3)NC(=O)[C@H](CC(=O)O)NC1=O)NC(=O)[C@H](CC(C)(C)C)NC(=O)[C@H](CC(=O)O)NC2=O (some centres unmarked) [I-1616]"
  value comparator: "="
  data value: 4.5
- compound: "CC(=O)N1CCC[C@]12CC=CCCCC1(CCCC=CCCCCCC[C@@](C)(C(=O)N[C@@H](Cc3ccsc3)C(=O)N[C@@H](Cc3csc4ccccc34)C(=O)N[C@@H](CCC(N)=O)C(N)=O)NC(=O)[C@H](CC(N)=O)NC(=O)[C@H](Cc3ccccc3)NC(=O)[C@H](C)NC(=O)[C@H](C)NC(=O)[C@H](CC(=O)O)NC(=O)[C@H](CC(=O)O)NC1=O)NC(=O)[C@H](CC(C)(C)C)NC(=O)[C@H](CC(=O)O)NC2=O (some centres unmarked) [I-678]"
  value comparator: "="
  data value: 16.8
- compound: "CC(=O)N1CCC[C@]12CC=CCCCC1(CCCC=CCCCOC(=O)N3CC[C@@](C(=O)N[C@@H](Cc4ccsc4)C(=O)N[C@@H](Cc4csc5ccccc45)C(=O)N[C@@H](CCC(N)=O)C(N)=O)(C3)NC(=O)[C@H](CC(C)C)NC(=O)[C@H](Cc3ccccc3)NC(=O)[C@H](CC(=O)N3CCOCC3)NC(=O)[C@H](C)NC(=O)[C@H](CC(=O)O)NC(=O)[C@H](CC(=O)O)NC1=O)NC(=O)[C@H](CC(C)(C)C)NC(=O)[C@H](CC(=O)O)NC2=O (some centres unmarked) [I-1507]"
  value comparator: ">"
  data value: 20
- compound: "CC(=O)N1CCC[C@]12CC=CCCCC1(CCCC=CCCCOC(=O)N3CC[C@@](C(=O)N[C@@H](Cc4ccsc4)C(=O)N[C@@H](Cc4csc5ccccc45)C(=O)N[C@@H](CCC(N)=O)C(N)=O)(C3)NC(=O)[C@H](CC(C)C)NC(=O)[C@H](Cc3ccccc3)NC(=O)[C@H](C)NC(=O)[C@H](C)NC(=O)[C@H]([C@@H](C)O)NC(=O)[C@H](CC(=O)O)NC1=O)NC(=O)[C@H](CC(C)(C)C)NC(=O)[C@H](CC(=O)O)NC2=O (some centres unmarked) [I-1167]"
  value comparator: "="
  data value: 11.7
